Values compiled from ChEMBL document CHEMBL4033748.

assay: Half life in Sprague-Dawley rat at 5 mg/kg, iv; format: ADME, organism-based; conditions: in vivo
recorded_endpoint: half-life (h)
Express it in h; write the number only.

Entry O=C(NC[C@@H]1CCOC1)c1ccc(NC(=O)N2Cc3ccccc3C2)cc1 ; half-life = 3

----------
test system: Liver; assay: Unbound intrinsic clearance in human liver microsomes at 0.5 uM in presence of NADPH incubated for 5 to 30 mins by HPLC-MS/MS method; type: ADME, microsome
Decide using CL free: a value greater than or equal to 60 mL/min/kg is criterion met, a smaller one is criterion not met.

Here's what some known entries look like.
molecule | label
O=C(Nc1ccc(C(=O)N2CCN(c3ccccn3)CC2)cc1)N1Cc2ccccc2C1 | criterion met
O=C(/C=C/c1cccnc1)NCCCCC1CCN(C(=O)c2ccccc2)CC1 | criterion met

Say whether CC1(C(=O)N2CCC(c3ccc(NC(=O)N4Cc5ccccc5C4)cc3)CC2)CC1 shows CL free of 60 mL/min/kg or more. criterion not met

Please indicate if the recorded CL free for O=C(NCC1CCCOC1)c1ccc(NC(=O)N2Cc3ccccc3C2)cc1 (stereo not given) meets or exceeds 60 mL/min/kg. criterion not met

// inclusive: CL free at least 60 mL/min/kg? input: CC(C)(C)CCNC(=O)c1ccc(NC(=O)N2Cc3ccccc3C2)cc1 criterion met
